Hi there, I'd appreciate the recorded percentage damage caused to the plant, IPOHE, PRE Application for every entry that follows.
Tested on: Ipomoea hederacea (IPOHE)
EXPERIMENT: Pre-emergence glasshouse herbicide test
Type: in vivo
CONDITION LABEL: pre-emergence (sprayed after one day cultivation), 1000 g/h, evaluated after 13 days, five point scale

For Ipomoea hederacea (IPOHE), give percentage damage caused to the plant, IPOHE, PRE Application of the listed compound: `Cn1nnnc1NC(=O)c1nn(C)c(=O)c(-c2ccc(Cl)cc2Cl)c1Cl` 3 (3=40-59%)

For Ipomoea hederacea (IPOHE), give percentage damage caused to the plant, IPOHE, PRE Application of the listed compound: `Cn1nnnc1NC(=O)c1nn(C)c(=O)c(-c2cccc(Cl)c2)c1Cl` 4 (4=60-79%)

For Ipomoea hederacea (IPOHE), give percentage damage caused to the plant, IPOHE, PRE Application of the listed compound: `Cn1nnnc1NC(=O)c1nn(C)c(=O)c(-c2ccc(Cl)c(Cl)c2)c1Cl` 3 (3=40-59%)

For Ipomoea hederacea (IPOHE), give percentage damage caused to the plant, IPOHE, PRE Application of the listed compound: `CCOc1c(C(=O)Nc2nnnn2C)nn(C)c(=O)c1-c1ccc(Cl)c(Cl)c1` 4 (4=60-79%)

For Ipomoea hederacea (IPOHE), give percentage damage caused to the plant, IPOHE, PRE Application of the listed compound: `CCOc1c(C(=O)Nc2nnnn2C)nn(C)c(=O)c1-c1ccccc1` 5 (5=80-100%)

For Ipomoea hederacea (IPOHE), give percentage damage caused to the plant, IPOHE, PRE Application of the listed compound: `COc1ccc(-c2c(Cl)c(C(=O)Nc3nnnn3C)nn(C)c2=O)cc1OC` 5 (5=80-100%)

For Ipomoea hederacea (IPOHE), give percentage damage caused to the plant, IPOHE, PRE Application of the listed compound: `Cc1c(Cl)c(C(=O)Nc2nnnn2C)nn(C)c1=O` 5 (5=80-100%)

For Ipomoea hederacea (IPOHE), give percentage damage caused to the plant, IPOHE, PRE Application of the listed compound: `COc1ccc(-c2c(Cl)c(C(=O)Nc3nnnn3C)nn(C)c2=O)cc1` 1 (1=0-19%)

For Ipomoea hederacea (IPOHE), give percentage damage caused to the plant, IPOHE, PRE Application of the listed compound: `Cn1nnnc1NC(=O)c1nn(C)c(=O)c(-c2ccc(Cl)cc2)c1Cl` 2 (2=20-39%)

For Ipomoea hederacea (IPOHE), give percentage damage caused to the plant, IPOHE, PRE Application of the listed compound: `Cn1nnnc1NC(=O)c1nn(C)c(=O)c(-c2ccccc2)c1Cl` 1 (1=0-19%)

====

System: Ipomoea hederacea (IPOHE)
EXPERIMENT: Post-emergence glasshouse herbicide test
Type: in vivo
CONDITION LABEL: post-emergence (sprayed after 8 days cultivation), 1000 g/h, evaluated after 13 days, five point scale
PARAMETER: percentage damage caused to the plant, IPOHE, POST Application

Give reported percentage damage caused to the plant, IPOHE, POST Application value for CCCCNc1c(C(=O)Nc2nnnn2C)nn(C)c(=O)c1C [Compound 1.008] 2 (2=20-39%)

Give reported percentage damage caused to the plant, IPOHE, POST Application value for COc1ccc(-c2c(Cl)c(C(=O)Nc3nnnn3C)nn(C)c2=O)cc1 [Compound 1.016] 4 (4=60-79%)

Give reported percentage damage caused to the plant, IPOHE, POST Application value for Cc1ccc(C)c(-c2c(Cl)c(C(=O)Nc3nnnn3C)nn(C)c2=O)c1 [Compound 1.020] 5 (5=80-100%)

Give reported percentage damage caused to the plant, IPOHE, POST Application value for Cn1nnnc1NC(=O)c1nn(C)c(=O)c(-c2cccc(Cl)c2)c1Cl [Compound 1.012] 3 (3=40-59%)

Give reported percentage damage caused to the plant, IPOHE, POST Application value for Cn1nnnc1NC(=O)c1nn(C)c(=O)c(-c2ccccc2)c1Cl [Compound 1.010] 4 (4=60-79%)

Give reported percentage damage caused to the plant, IPOHE, POST Application value for CCOc1c(C(=O)Nc2nnnn2C)nn(C)c(=O)c1-c1ccc(Cl)c(Cl)c1 [Compound 1.032] 4 (4=60-79%)

Give reported percentage damage caused to the plant, IPOHE, POST Application value for COc1ccc(-c2c(Cl)c(C(=O)Nc3nnnn3C)nn(C)c2=O)cc1OC [Compound 1.017] 5 (5=80-100%)

Give reported percentage damage caused to the plant, IPOHE, POST Application value for CCOc1c(C(=O)Nc2nnnn2C)nn(C)c(=O)c1-c1ccccc1 [Compound 1.031] 5 (5=80-100%)

Give reported percentage damage caused to the plant, IPOHE, POST Application value for Cn1nnnc1NC(=O)c1nn(C)c(=O)c(-c2ccc(Cl)cc2Cl)c1Cl [Compound 1.011] 4 (4=60-79%)

Give reported percentage damage caused to the plant, IPOHE, POST Application value for Cn1nnnc1NC(=O)c1nn(C)c(=O)c(-c2ccc(Cl)cc2)c1Cl [Compound 1.013] 2 (2=20-39%)

Give reported percentage damage caused to the plant, IPOHE, POST Application value for COc1cccc(-c2c(Cl)c(C(=O)Nc3nnnn3C)nn(C)c2=O)c1 [Compound 1.036] 4 (4=60-79%)

Give reported percentage damage caused to the plant, IPOHE, POST Application value for Cn1nnnc1NC(=O)c1nn(C)c(=O)c(-c2ccc(Cl)c(Cl)c2)c1Cl [Compound 1.019] 4 (4=60-79%)

Give reported percentage damage caused to the plant, IPOHE, POST Application value for CCOc1c(C(=O)Nc2nnnn2C)nn(C)c(=O)c1C [Compound 1.009] 5 (5=80-100%)

Give reported percentage damage caused to the plant, IPOHE, POST Application value for Cn1nnnc1NC(=O)c1nn(C)c(=O)c(-c2ccccc2C(F)(F)F)c1Cl [Compound 1.037] 5 (5=80-100%)

Give reported percentage damage caused to the plant, IPOHE, POST Application value for Cc1ccc(-c2c(Cl)c(C(=O)Nc3nnnn3C)nn(C)c2=O)cc1 [Compound 1.015] 3 (3=40-59%)

Give reported percentage damage caused to the plant, IPOHE, POST Application value for Cn1nnnc1NC(=O)c1nn(C)c(=O)c(-c2ccc(C(F)(F)F)cc2)c1Cl [Compound 1.023] 2 (2=20-39%)

Give reported percentage damage caused to the plant, IPOHE, POST Application value for Cn1nnnc1NC(=O)c1nn(C)c(=O)c(-c2cccc(C(F)(F)F)c2)c1Cl [Compound 1.030] 4 (4=60-79%)

Give reported percentage damage caused to the plant, IPOHE, POST Application value for Cc1c(Cl)c(C(=O)Nc2nnnn2C)nn(C)c1=O [Compound 1.007] 5 (5=80-100%)

Each recorded value in this set is attributed to patent US9701662B2.
